Origin of values: patent US10787433B2

System: EAAT2
experimentalProtocol: EAAT2 Cellular Assay: EAAT2 protein levels in PA-EAAT2 cells by Western blot
Type: cell-based, human
assaySetup: 5 μM (concentration that reaches maximum activity), 24 hr, relative to DMSO controls
Each entry below carries its reported Fold increase for EAAT2 at indicated concentration (maximum activity).

>>> testresult("c1ccc(COc2ccc(-c3ccccn3)nn2)nc1")
"3.0 ± 0.1 (5 μM) fold"
>>> testresult("CN(C)C(=O)COc1ccc(-c2ccccn2)nn1")
"2.9 ± 0.2 (5 μM) fold"
>>> testresult("O=C(Nc1ccc(-c2ccccn2)nn1)c1cncs1")
"1.9 ± 0.1 (5 μM) fold"
>>> testresult("c1ccc(-c2ccc(NCCCn3ccnc3)nn2)nc1")
"3.3 ± 0.2 (5 μM) fold"
>>> testresult("O=C(Nc1ccc(-c2ccccn2)nn1)c1ccccc1Cl")
"2.0 ± 0.2 (5 μM) fold"

q: Lookup: Fold increase for EAAT2 at indicated concentration (maximum activity) / EAAT2 / `Cn1ccnc1COc1ccc(-c2ccccn2)nn1`
a: 1.9 ± 0.1 (5 μM) fold

q: // next record CC(Oc1ccc(-c2ccccn2)nn1)c1ccccn1 (stereo not drawn)
a: 1.7 ± 0.1 (5 μM) fold

q: // next record `Cn1cncc1COc1ccc(-c2ccccn2)nn1`
a: 1.7 ± 0.1 (5 μM) fold

q: // next record `CN(C)CCNc1ccc(-c2ccccn2)nn1`
a: 2.4 ± 0.2 (5 μM) fold

###

Test system: EAAT2
experimentalProtocol: EAAT2 Cellular Assay: EAAT2 protein levels in PA-EAAT2 cells by Western blot
Type: cell-based, human
assaySetup: 10 μM (concentration that reaches maximum activity), 24 hr, relative to DMSO controls
Description: All of the compounds were initially evaluated in PA-EAAT2 cells, a primary astrocyte stably expressing human EAAT2 mRNAs (Kong et al., J Clin Invest. 2014:1255-67). Cells were treated with compound at 0.25 μM, 0.5 μM, 1 μM, 2.5 μM, 5 μM, 10 μM, and 25 μM for 24 hr and then harvested for measuring EAAT2 protein levels by Western blot analysis.
Each entry below carries its reported Fold increase for EAAT2 at indicated concentration (maximum activity).

>>> testresult("O=C(COc1ccc(-c2ccccn2)nn1)N1CCCCC1")
"2.6 ± 0.1 (10 μM) fold"
>>> testresult("CN(C(=O)COc1ccc(-c2ccccn2)nn1)c1ccccc1")
"2.2 ± 0.3 (10 μM) fold"
>>> testresult("Cn1cncc1C(=O)Nc1ccc(-c2ccccn2)nn1")
"1.8± 0.2 (10 μM) fold"
>>> testresult("Cc1ccccc1NC(=O)COc1ccc(-c2ccccn2)nn1")
"2.4 ± 0.2 (10 μM) fold"
>>> testresult("c1ccc(-c2ccc(OCc3nccs3)nn2)nc1")
"2.2 ± 0.3 (10 μM) fold"

q: Record request: Fold increase for EAAT2 at indicated concentration (maximum activity) value, item `O=C(Nc1ccc(-c2cccnc2)nn1)c1ccc(F)cc1`
a: 2.1 ± 0.2 (10 μM) fold
